Each recorded value in this set is attributed to PubChem BioAssay (EPA / NIEHS).

Read-out: UDP glucuronosyltransferase (UGT1A6), UGT1A6 (gene 54578)
Assay remarks: LTEA_HepaRG_UGT1A6: Life Technologies and Expression Analysis (LTEA) Assay for UDP glucuronosyltransferase (UGT1A6) using HepaRG (AID 2283539)
Assay setup: mRNA level, 48 h; actives raise or lower the signal
The source made the active and inactive calls. The calls were made as follows: active = hit-call score of the fitted dose curve at least 0.9, where 1 is the maximum; inactive = score below 0.9.
Outcomes: active, inactive

{"Molecule": "CCNC(=O)NC(=O)C(C#N)=NOC", "Assigned label": "active"}
{"Molecule": "CC(C)C1(C)N=C(c2ncccc2C(=O)O)NC1=O (stereo unspecified)", "Assigned label": "inactive"}
{"Molecule": "CCN(CC)C(=O)C(C)Oc1cccc2ccccc12 (stereo unspecified)", "Assigned label": "inactive"}
{"Molecule": "CCOc1cc(C(C)(C)C)ccc1C1COC(c2c(F)cccc2F)=N1 (stereo unspecified)", "Assigned label": "inactive"}
{"Molecule": "CCCCC(C#N)(Cn1cncn1)c1ccc(Cl)cc1 (stereo unspecified)", "Assigned label": "inactive"}
{"Molecule": "COC(=O)c1c(C(F)F)nc(C(F)(F)F)c(C2=NCCS2)c1CC(C)C", "Assigned label": "inactive"}
{"Molecule": "COCC(C)N(C(=O)CCl)c1c(C)csc1C (stereo unspecified)", "Assigned label": "inactive"}
{"Molecule": "CCOC(=O)C(C)OC(=O)c1cc(Oc2ccc(C(F)(F)F)cc2Cl)ccc1[N+](=O)[O-] (stereo unspecified)", "Assigned label": "inactive"}
{"Molecule": "Cn1c(-c2ccccc2)cc(-c2ccccc2)[n+]1C", "Assigned label": "active"}
{"Molecule": "COP(=S)(OC)Oc1ccc([N+](=O)[O-])c(C)c1", "Assigned label": "inactive"}
{"Molecule": "COC(=O)NS(=O)(=O)c1ccc(N)cc1", "Assigned label": "inactive"}
{"Molecule": "CCOc1nc(C(Cl)(Cl)Cl)ns1", "Assigned label": "inactive"}
{"Molecule": "CC(C)=CC1C(C(=O)OCc2coc(Cc3ccccc3)c2)C1(C)C (stereo unspecified)", "Assigned label": "inactive"}
{"Molecule": "N#Cc1c(Cl)cccc1Cl", "Assigned label": "inactive"}
{"Molecule": "COc1cc(Cl)c(OC)cc1Cl", "Assigned label": "inactive"}
{"Molecule": "Cc1nc(N(C)C)nc(OC(=O)N(C)C)c1C", "Assigned label": "inactive"}
